# credit: patent US20090214558A1

Target: T1, MAdCAM-IgG1 Fc fusion protein
T1 construct: Made in CHO-DHFR cells and coated on plates at 4.5 µg/mL
T1 sequence (chain, as listed by the source limits assumed): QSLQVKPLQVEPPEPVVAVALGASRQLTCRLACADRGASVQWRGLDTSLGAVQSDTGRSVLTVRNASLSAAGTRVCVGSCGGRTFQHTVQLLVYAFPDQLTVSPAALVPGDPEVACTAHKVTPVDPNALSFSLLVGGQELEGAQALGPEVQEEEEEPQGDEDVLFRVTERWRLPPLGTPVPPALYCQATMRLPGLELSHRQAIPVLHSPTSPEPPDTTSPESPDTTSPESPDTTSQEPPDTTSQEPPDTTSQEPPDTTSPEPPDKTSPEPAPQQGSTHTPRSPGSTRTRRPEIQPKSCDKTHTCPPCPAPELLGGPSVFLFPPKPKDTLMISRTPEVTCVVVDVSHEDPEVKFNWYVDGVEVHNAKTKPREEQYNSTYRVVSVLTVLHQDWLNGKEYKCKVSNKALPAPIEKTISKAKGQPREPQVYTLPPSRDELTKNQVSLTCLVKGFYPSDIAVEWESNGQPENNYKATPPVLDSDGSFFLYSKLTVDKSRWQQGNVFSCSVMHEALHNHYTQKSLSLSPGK
Assay: inhibition of adhesion of calcein-loaded JY cells to plate-coated MAdCAM-IgG1 Fc fusion (fluorescence)
METRIC_NAME: IC50 (mg/L)
Give bare numbers, in mg/L.

Sample 7.16.6_S (antibody, human IgG2, kappa, V domains shown, Recombinant, from transiently transfected FreeStyle HEK293 cells; also called 7.16.6-5; 7.16.6_5) VH: QVQLVQSGAEVKKPGASVKVSCKASGYTFTSYGINWVRQAPGQGLEWMGWISVYSGNTNYAQKVQGRVTMTADTSTSTAYMDLRSLRSDDTAVYYCAREGSSSSGDYYYGMDVWGQGTTVTVSS VL: DIVMTQTPLSLSVTPGQPASISCKSSQSLLHTDGTTYLYWYLQKPGQPPQLLIYEVSNRFSGVPDRFSGSGSGTDFTLKISRVEAEDVGIYYCMQSIQLPWTFGQGTKVEIKR — what was its IC50?
0.0342
